Entry source: ChEMBL document CHEMBL1201862

- Tested on: CCRF-CEM
- Protocol: NCI tumour cell line growth inhibition, 48 h
Activity calls are given as the source filed them. Cut-off read from the data, not from the text of the source: active = GI50 up to about 1.1 µM and inactive = higher.
Quantity: GI50

Below: 4 compounds and their reported GI50.
c1c[nH]c(-c2cccc3nsnc23)c1 :: 93.1 µM (inactive)
C=CCCC1(CC(Sc2ccccc2)P(=O)(c2ccccc2)c2ccccc2)OCCO1 (stereo not given) :: > 10 µM (inactive)
NC(=O)NC(CC(=O)O)C(=O)O (stereo not given) :: > 100 µM (inactive)
COc1cc2ncnc(Nc3cccc(Cl)c3)c2cc1OC :: 3.82 µM (inactive)

Turning to the following compound.
Problem: Item Cc1ccc(NC(=O)C(=O)C(C2C(C)CC(=O)C2CC(=O)O)[N+](=O)[O-])cc1 (stereo not given) has what recorded GI50?
Result: > 100 µM (inactive)
